# System: U2OS
# assay.explanation: cell viability relative to DMSO; higher = less toxic
# condition.description: 72 h; 1000 nM
This listing pairs compounds with measured cell viability.
value.kind: cell viability (%)

- O[C@@H]1CO[C@H]2[C@@H]1OC[C@@H]2O [isosorbide]: 98.8
- NCCCNCCCCNCCCN: 96.8
- Cc1cc(F)c(Nc2ncnc3cc(OCc4ccccc4)ccc23)cc1O: 102
- CC(C)(Sc1ccncc1-c1ccc(C#N)c2ccccc12)C(=O)O: 99.8
- CC(=O)NNC(=O)N1Cc2ccccc2Oc2ccc(Cl)cc21: 99.9
- CC(Cc1ccccc1)(NC(=O)CN)c1ccccc1 (stereo unspecified) [remacemide]: 93.6
- C=CC[N@@+]12CC[C@@]34c5ccccc5N5/C=C6/[C@H]7C[C@H]8[C@@]9(CC[N@@+]8(CC=C)C/C7=C/CO)c7ccccc7N(/C=C(/[C@@H](C[C@@H]31)/C(=C\CO)C2)[C@H]54)[C@@H]69: 99.7
- COC(=O)[C@H](c1ccccc1Cl)N1CCc2sccc2C1: 102
- COC(=O)c1ccc2c(c1)nc(NC(=O)c1ccccc1)n2CCCc1ccccc1: 99.3
- CC(C)Oc1ccc(-c2nc(-c3cccc4c3CC[C@H]4NCCC(=O)O)no2)cc1C#N: 106
- CCCCc1ncc(/C=C(\Cc2cccs2)C(=O)O)n1Cc1ccc(C(=O)O)cc1: 102
- O[C@H]1CC[C@H](Nc2nc(-c3ccccc3)nc3[nH]ccc23)CC1: 95.7
- CN[C@@H](C)C(=O)N[C@H](C(=O)N1CCC[C@H]1c1nc(C(=O)c2ccc(F)cc2)cs1)C1CCCCC1: 97.8
- CCN(CC)CCOC(=O)c1ccc(N)cc1: 94.2
- O=C(O)C[C@H]1CC[C@H](c2ccc(NC(=O)c3nnc(Nc4ccc(F)c(F)c4)o3)cc2)CC1: 103
- O=C(O)[C@H]1CN(CCCP(=O)(O)O)CCN1: 101

// provenance: the supplement of paper PMC13380429
